As shown below, each of these compounds has a reported GRmax value.
# Test system: HCC38 cells
# assay-info: Resazurin-based cell viability assay, monotherapy drug screen
# Parameters: species or system human
# assay-conditions: HCC38; drug efficacy at highest tested dose (<0 cytotoxic, 0 cytostatic, >0 partial growth inhibition)

sample-smiles	tested-system	GRmax
O=[N+]([O-])c1ccc(S(=O)(=O)N2CCN(c3ccnc4cc(Cl)ccc34)CC2)c([N+](=O)[O-])c1	HCC38 cells	0.95
CC(C)C[C@H](NC(=O)CNC(=O)c1cc(Cl)ccc1Cl)B1OC(=O)C(CC(=O)O)(CC(=O)O)O1	HCC38 cells	−0.99
CC(C)C[C@H](NC(=O)[C@H](Cc1ccccc1)NC(=O)c1cnccn1)B(O)O	HCC38 cells	−0.99
CCCc1ccc(OCC(=O)N(Cc2nc(-c3cccnc3)no2)C(C)C)cc1	HCC38 cells	1.0
CC1=C(O)C(=O)C=C2C1=CC=C1[C@@]2(C)CC[C@@]2(C)[C@@H]3C[C@](C)(C(=O)O)CC[C@]3(C)CC[C@]12C	HCC38 cells	−0.96

---

Reported GRmax by item:
# Tested on: HCC1806 cells
# assay-info: Resazurin-based cell viability assay, monotherapy drug screen
# Parameters: species or system human
# assay-conditions: HCC1806; drug efficacy at highest tested dose (<0 cytotoxic, 0 cytostatic, >0 partial growth inhibition)
# Procedure: Eighteen pharmaceutical compounds were purchased from Selleckchem. […] The stock solutions were stored at -80°C. […] New drug plates were prepared for each drug screen. […]
measurement-label: GRmax

sample-smiles	tested-system	measurement-label	reported-measurement
O=[N+]([O-])c1ccc(S(=O)(=O)N2CCN(c3ccnc4cc(Cl)ccc34)CC2)c([N+](=O)[O-])c1	HCC1806 cells	GRmax	0.93
COC[C@H](NC(=O)c1cnc(C)s1)C(=O)N[C@@H](COC)C(=O)N[C@@H](Cc1ccccc1)C(=O)[C@@]1(C)CO1	HCC1806 cells	GRmax	0.42
CC(C)C[C@H](NC(=O)CNC(=O)c1cc(Cl)ccc1Cl)B(O)O	HCC1806 cells	GRmax	0.39
CC(=O)O[C@H]1C(=O)[C@@]2(C)[C@H]([C@H](OC(=O)c3ccccc3)[C@]3(O)C[C@H](OC(=O)[C@H](O)[C@@H](NC(=O)c4ccccc4)c4ccccc4)C(C)=C1C3(C)C)[C@]1(OC(C)=O)CO[C@@H]1C[C@@H]2O	HCC1806 cells	GRmax	0.51
CC(C)C[C@H](NC(=O)[C@@H](NC(=O)c1cccc(-c2ccccc2)n1)[C@@H](C)O)B(O)O	HCC1806 cells	GRmax	0.50
CC(C)C[C@H](NC(=O)CNC(=O)c1cc(Cl)ccc1Cl)B1OC(=O)C(CC(=O)O)(CC(=O)O)O1	HCC1806 cells	GRmax	0.47
COc1cccc2c1C(=O)c1c(O)c3c(c(O)c1C2=O)C[C@@](O)(C(=O)CO)C[C@@H]3O[C@H]1C[C@H](N)[C@H](O)[C@H](C)O1	HCC1806 cells	GRmax	0.54

---

# System: MCF-7 cells
# assay-info: Resazurin-based cell viability assay, monotherapy drug screen
# Design: species or system human
# assay-conditions: MCF-7; drug efficacy at highest tested dose (<0 cytotoxic, 0 cytostatic, >0 partial growth inhibition)
measurement-label: GRmax

compound	measurement-label	reported-measurement
CC(C)C[C@H](NC(=O)[C@H](Cc1ccccc1)NC(=O)c1cnccn1)B(O)O [Bortezomib]	GRmax	−0.43
CC(C)C[C@H](NC(=O)[C@H](CCc1ccccc1)NC(=O)CN1CCOCC1)C(=O)N[C@@H](Cc1ccccc1)C(=O)N[C@@H](CC(C)C)C(=O)[C@@]1(C)CO1 [Carfilzomib]	GRmax	−0.45
N.N.[Cl][Pt][Cl] [Cisplatin]	GRmax	−0.96
COc1cccc2c1C(=O)c1c(O)c3c(c(O)c1C2=O)C[C@@](O)(C(=O)CO)C[C@@H]3O[C@H]1C[C@H](N)[C@H](O)[C@H](C)O1 [Doxorubicin]	GRmax	0.44
COc1cccc2c1C(=O)c1c(O)c3c(c(O)c1C2=O)C[C@@](O)(C(=O)CO)C[C@@H]3O[C@H]1C[C@H](N)[C@@H](O)[C@H](C)O1 [Epirubicin]	GRmax	0.42
CCCc1ccc(OCC(=O)N(Cc2nc(-c3cccnc3)no2)C(C)C)cc1 [PI-1840]	GRmax	0.97
COC[C@H](NC(=O)c1cnc(C)s1)C(=O)N[C@@H](COC)C(=O)N[C@@H](Cc1ccccc1)C(=O)[C@@]1(C)CO1 [Oprozomib]	GRmax	−0.45

Ref: paper PMC10825133
